# assay-name: basal MM1S mitochondrial membrane potential changes, profiling panel, cell-based, JC-1 fluorescence, 24 h, 100 nL compound (AID 1170); also: test concentration not given here
# particulars: higher = more signal
measured-parameter: z-score

Prompt: Name the reported z-score value associated with the molecule `[N-]=[N+]=NCc1ccccc1C[C@]1(C(=O)O)COC(c2ccc(OCCCO)cc2)=N1`
Completion: -0.261

Prompt: Name the reported z-score value associated with the molecule `COCCCNC(=O)[C@@]1(Sc2ccc(C)cc2)CC(=O)N(C2CCCCC2)[C@@H]1c1ccc(CO)cc1I`
Completion: -1.24

Prompt: Name the reported z-score value associated with the molecule `COCCOC(=O)N1C(=O)[C@@]2(c3cc(C#CC4(O)CCCCCC4)ccc31)[C@H](c1ccc(OCCO)cc1)N1[C@H](c3ccccc3)[C@H](c3ccccc3)OC(=O)[C@H]1[C@@H]2C(=O)N1CCCCCCC1`
Completion: -1.08

Prompt: Name the reported z-score value associated with the molecule COC(=O)C1(CC(C)C)C=C2C(=C(C(C)C)C(=O)C2C)CN1 (centres undefined)
Completion: -0.919

* * *

# Test system: PRMT1 (protein arginine N-methyltransferase 1)
# assay-name: PRMT1 binders on small-molecule microarrays, primary screen, biochemical, small-molecule microarray, 635 nm fluorescence (AID 1088);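 also: binding of Prmt1 protein to compounds spotted on small-molecule microarray slides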
# particulars: small-molecule microarray binding, higher = more signal
Quick rule: composite z-score of at least 1 means MET, below that means NOT MET.

Prompt: Is composite z-score for `C=C(COC)/C(=C/C[C@@H](OC(C)=O)c1ccccc1OCCO)c1cc(C(=O)OC)ccc1OC` at or above 1?
Completion: MET

Prompt: Is composite z-score for `COCCOC(=O)N1C(=O)[C@@]2(c3cc(C#CC4(O)CCCCCC4)ccc31)[C@H](C(=O)NC[C@H](O)c1ccccc1)[C@H]1C(=O)O[C@H](c3ccccc3)[C@H](c3ccccc3)N1[C@@H]2c1ccc(O)cc1` at or above 1?
Completion: MET

Prompt: Is composite z-score for C=CCC(OC(C)=O)[C@@H]1[C@@H](N(Cc2cccc3ccccc23)C(=O)c2ccc(C)cc2)c2cc(OCCCO)ccc2N1C(=O)c1ccc2ccccc2n1 (stereo not given in full) at or above 1?
Completion: NOT MET

Prompt: Is composite z-score for `Cc1ccc(S[C@]2(C(=O)NCCCN(C)C)CC(=O)N(Cc3ccccc3Cl)[C@@H]2c2ccc(CO)cc2I)cc1` at or above 1?
Completion: NOT MET

Prompt: Is composite z-score for `C#CCN(C/C=C/c1ccccc1)[C@H](CO[Si](C)(C)C(C)(C)C)c1ccccc1` at or above 1?
Completion: NOT MET

Prompt: Is composite z-score for C=CC(CO)NC(=O)OCC1c2ccccc2-c2ccccc21 (stereo not given) at or above 1?
Completion: NOT MET

Prompt: Is composite z-score for `CC(C)CNC(=O)[C@@H]1c2ccccc2C(=O)N(C(C)C)[C@H]1c1ccc(CO)cc1` at or above 1?
Completion: NOT MET

Prompt: Is composite z-score for `COCCOC(=O)N1C(=O)[C@@]2(c3cc(C#CC4=CCCCC4)ccc31)[C@H](C(=O)N1CCc3cc(OC)c(OC)cc3C1)[C@H]1C(=O)O[C@H](c3ccccc3)[C@H](c3ccccc3)N1[C@@H]2c1ccc(O)cc1` at or above 1?
Completion: MET

Prompt: Is composite z-score for `COC(=O)[C@@]1(Cc2ccc(OC)cc2)[C@H]2c3cc(C(=O)N(C)C)n(Cc4ccsc4Br)c3C[C@H]2CN1C(=O)c1ccccc1` at or above 1?
Completion: NOT MET

Prompt: Is composite z-score for `CN1C(=O)[C@]2(CCC(=O)OC(C)(C)C)N=C(c3ccc(OCCCO)cc3)O[C@@H]2c2ccccc21` at or above 1?
Completion: MET

Prompt: Is composite z-score for C[C@H]1C2[C@H](Cc3ccccc3)NC(=O)[C@]23C(=O)NCC(=O)N2CCC[C@H]2C(=O)NC/C=C\C/C=C/C3[C@@H]2O[C@]12C (stereo not given in full) at or above 1?
Completion: NOT MET

Prompt: Is composite z-score for `COc1ccc(CCNC(=O)[C@@H]2c3ccccc3C(=O)N(CC34CC5CC(CC(C5)C3)C4)[C@H]2c2ccc(CO)cc2)cc1` at or above 1?
Completion: MET

Prompt: Is composite z-score for `CCCC[C@H]1OB(O)C[C@H]2C1=C(COC)C[C@H]1C(=O)C=CC(=O)[C@H]12` at or above 1?
Completion: MET

Prompt: Is composite z-score for `C=CC[C@]1(C(=O)N(C)C)COC(c2ccc(OCCCO)cc2)=N1` at or above 1?
Completion: MET

Prompt: Is composite z-score for `CCOC(=O)C1=C(C(=O)OCC)N(S(=O)(=O)CC[Si](C)(C)C)[C@H](c2ccccc2)CC1` at or above 1?
Completion: MET

Prompt: Is composite z-score for `COc1ccc(NC(=O)O[C@H]2[C@H](OC(=O)Nc3ccc4c(c3)OCO4)[C@H](OC(=O)Nc3ccc4c(c3)OCO4)[C@@H](OC)O[C@@H]2CO)cc1` at or above 1?
Completion: MET

Prompt: Is composite z-score for `O=C1c2ccccc2[C@@]2(Cc3ccccc3N(Cc3ccccc3)C2=O)[C@H](c2ccc(CO)cc2)N1Cc1ccccc1` at or above 1?
Completion: NOT MET

Prompt: Is composite z-score for `[N-]=[N+]=NCc1ccccc1C[C@]1(C(=O)NCc2ccccc2)N=C(c2ccc(OCCCO)cc2)O[C@H]1c1ccccc1CN=[N+]=[N-]` at or above 1?
Completion: MET

Prompt: Is composite z-score for `Cc1c(-c2ccc(-c3ccc(Cl)c(Cl)c3)o2)nc(-c2ccccc2)c2c1CO[Si]2(C(C)C)C(C)C` at or above 1?
Completion: NOT MET

Prompt: Is composite z-score for `CCOC(=O)C[C@H]1[C@H](OC(=O)c2cc3ccccc3oc2=O)[C@@H](NC(=O)C2CCCCC2)c2cc(OCCCO)ccc2N1C(=O)Cc1ccc(OC)cc1` at or above 1?
Completion: NOT MET

Prompt: Is composite z-score for `CCCC=C(CCC)[C@@H](NS(=O)(=O)c1ccc(Cl)cc1)c1ccccc1` at or above 1?
Completion: NOT MET

Prompt: Is composite z-score for C=CCC(OC(C)=O)[C@@H]1[C@@H](N(Cc2ccc(-c3cccc(C(F)(F)F)c3)o2)C(=O)c2cccc3ccccc23)c2cc(OCCCO)ccc2N1C(=O)c1ccc2ccccc2c1 (stereo not given in full) at or above 1?
Completion: NOT MET

Prompt: Is composite z-score for `Cc1ccc(S(=O)(=O)N2[C@@H](c3ccccc3)C(C(=O)O)=CC[C@H]2c2ccc(C#N)cc2)cc1` at or above 1?
Completion: MET

Prompt: Is composite z-score for N#Cc1ccc(C(O)C2C=CC3C(=O)NC(=O)C3N2Nc2ccccn2)cc1 (stereo not given) at or above 1?
Completion: NOT MET

Prompt: Is composite z-score for `COC(=O)[C@]1(CO)N=C(c2ccc(OCCCO)cc2)O[C@@H]1c1ccccc1CN=[N+]=[N-]` at or above 1?
Completion: NOT MET

Prompt: Is composite z-score for `NCCCC[C@@H]1NC(=O)[C@H]2C[C@@H](C(=O)NCc3ccc(F)cc3)[C@@H](c3ccc(O)cc3)N2C1=O` at or above 1?
Completion: MET

Prompt: Is composite z-score for `CC(C)[Si](C#CCCCC#N)(O[C@H](c1ccccc1)c1cn([C@H](C)c2ccccc2)nn1)C(C)C` at or above 1?
Completion: MET

Prompt: Is composite z-score for `COCCOC(=O)N1C(=O)[C@@]2(c3ccccc31)[C@H](C(=O)N1CCCCCCC1)[C@H]1C(=O)O[C@H](c3ccccc3)[C@H](c3ccccc3)N1[C@@H]2c1ccc(O)cc1` at or above 1?
Completion: MET

Prompt: Is composite z-score for `C[N+](C)(C)CCCCCCNC(=O)[C@H]1C[C@H]2C(=O)NCC(=O)N2[C@H]1c1cccc(OCCO)c1` at or above 1?
Completion: MET
